Molecular target: HLA-A*69:01
Experiment: IEDB peptide-MHC binding, purified MHC/direct/fluorescence; filed as Kd, often an IC50 or EC50 that approximates it; bounds were set here for any values at or beyond the usual limits of such assays
Settings: source organism: Pseudomonas aeruginosa UCBPP-PA14
Reported property: Kd

Measured Kd, RTGTRLLGR : ≥ 20 µM

* * *

Target: HLA-A*02:17
Test: IEDB peptide-MHC binding, purified MHC/competitive/radioactivity; filed as Kd, often an IC50 or EC50 that approximates it; bounds were set here for any values at or beyond the usual limits of such assays
Conditions: source organism: Dengue virus 3 China/80-2/1980
Reported property: pKd
For clarity, pKd is expressed as the negative log10 of concentration in mol/L.

VLLLVTHYAI	6.25

Record FTMGVLCLA . Reported pKd: 5.17

* * *

Biological target: HLA-B*44:03
Assay: IEDB peptide-MHC binding, purified MHC/competitive/radioactivity; filed as Kd, often an IC50 or EC50 that approximates it; bounds were set here for any values at or beyond the usual limits of such assays
Settings: source organism: Dengue virus 2 Jamaica/1409/1983
Reported property: pKd
Answer as the number alone; pKd is minus log10 of concentration in mol/L.

Documented pKd of GEFGKAKGS : 5.38

* * *

Molecular target: HLA-A*03:01
Assay: IEDB peptide-MHC binding, purified MHC/direct/fluorescence; filed as Kd, often an IC50 or EC50 that approximates it; bounds were set here for any values at or beyond the usual limits of such assays
Conditions: source organism: Giardia lamblia ATCC 50803
Quick reference for pKd among some sequences
To interpret pKd, take it as minus log10 of a concentration measured in moles per litre.

KSNRIPFLY	7.66

Now consider the entry below.
Param item: HLYYFITYY ; param system: HLA-A*03:01; output pKd: 6.82

* * *

Biological target: HLA-B*57:01
Assay: IEDB peptide-MHC binding, purified MHC/direct/fluorescence; filed as Kd, often an IC50 or EC50 that approximates it; bounds were set here for any values at or beyond the usual limits of such assays
Conditions: source organism: Entamoeba histolytica HM-1:IMSS
Reported property: Kd

The reported Kd of the sequence FIILSTGKY was ≥ 20 µM

* * *

Target: HLA-A*01:01
Assay: IEDB peptide-MHC binding, purified MHC/direct/fluorescence; filed as Kd, often an IC50 or EC50 that approximates it; bounds were set here for any values at or beyond the usual limits of such assays
Conditions: source organism: Influenza A virus (A/Kinmen/645/04(H3N2))
Reported property: pKd
Here pKd is given on a logarithmic scale as minus log10 of the concentration in mol/L.

// field: pKd; key: ISEKLRSGY ; value = 6.33

* * *

Biological target: HLA-B*58:01
Assay: IEDB peptide-MHC binding, cellular MHC/competitive/fluorescence; bounds were set here for any values at or beyond the usual limits of such assays
Conditions: source organism: Human herpesvirus 4 strain B95-8
Reported property: IC50 (µM)
Write it as a number; the unit µM goes unstated.

Recorded IC50 (sequence NAAEPEQPW ): 5

* * *

Biological target: HLA-C*05:01
Test: IEDB peptide-MHC binding, purified MHC/direct/fluorescence; filed as Kd, often an IC50 or EC50 that approximates it; bounds were set here for any values at or beyond the usual limits of such assays
Details: source organism: human gammaherpesvirus 4
Reported property: Kd

In plain terms, ASDYSQGAF has a documented Kd of ≤ 1 nM

Reference source: the Immune Epitope Database (IEDB)
